- Tested on: Plasmodium falciparum
- PROTOCOL NOTES: Antiplasmodial activity against Plasmodium falciparum 3D7 infected in O positive erythrocytes assessed as parasitemia at 50 uM after 48 hrs by FACS-based assay (reference value: 3.484%)
- Type: functional
Answer false if Activity is under 1%, and true if it is 1% or more.

C[C@]12C[C@@]3(C(=O)NCC3c3ccccc3)C(=O)N1[C@H](CO)Cc1ccccc12 (stereo not given in full) :: true
C[C@]12CC3(CC=CC3)C(=O)N1[C@H](CO)Cc1ccccc12 :: false
CCOC(=O)[C@@]1(c2ccc([N+](=O)[O-])cc2[N+](=O)[O-])C[C@]2(C)c3ccccc3C[C@@H](CN(C)C)N2C1=O :: false
C[C@]12CC3(CCCC3)C(=O)N1[C@H](CO)Cc1ccccc12 :: true

# evaluate next
Hello, I need to know if CCOC(=O)[C@]1(c2ccc([N+](=O)[O-])cc2[N+](=O)[O-])C[C@]2(C)c3ccccc3C[C@@H](CN(C)C)N2C1=O has measured Activity not below 1%. Thanks!
true
